Collected pEC50 values appear next to each entry.
Target: UniProtKB P35228
Sequence (P35228 whole entry): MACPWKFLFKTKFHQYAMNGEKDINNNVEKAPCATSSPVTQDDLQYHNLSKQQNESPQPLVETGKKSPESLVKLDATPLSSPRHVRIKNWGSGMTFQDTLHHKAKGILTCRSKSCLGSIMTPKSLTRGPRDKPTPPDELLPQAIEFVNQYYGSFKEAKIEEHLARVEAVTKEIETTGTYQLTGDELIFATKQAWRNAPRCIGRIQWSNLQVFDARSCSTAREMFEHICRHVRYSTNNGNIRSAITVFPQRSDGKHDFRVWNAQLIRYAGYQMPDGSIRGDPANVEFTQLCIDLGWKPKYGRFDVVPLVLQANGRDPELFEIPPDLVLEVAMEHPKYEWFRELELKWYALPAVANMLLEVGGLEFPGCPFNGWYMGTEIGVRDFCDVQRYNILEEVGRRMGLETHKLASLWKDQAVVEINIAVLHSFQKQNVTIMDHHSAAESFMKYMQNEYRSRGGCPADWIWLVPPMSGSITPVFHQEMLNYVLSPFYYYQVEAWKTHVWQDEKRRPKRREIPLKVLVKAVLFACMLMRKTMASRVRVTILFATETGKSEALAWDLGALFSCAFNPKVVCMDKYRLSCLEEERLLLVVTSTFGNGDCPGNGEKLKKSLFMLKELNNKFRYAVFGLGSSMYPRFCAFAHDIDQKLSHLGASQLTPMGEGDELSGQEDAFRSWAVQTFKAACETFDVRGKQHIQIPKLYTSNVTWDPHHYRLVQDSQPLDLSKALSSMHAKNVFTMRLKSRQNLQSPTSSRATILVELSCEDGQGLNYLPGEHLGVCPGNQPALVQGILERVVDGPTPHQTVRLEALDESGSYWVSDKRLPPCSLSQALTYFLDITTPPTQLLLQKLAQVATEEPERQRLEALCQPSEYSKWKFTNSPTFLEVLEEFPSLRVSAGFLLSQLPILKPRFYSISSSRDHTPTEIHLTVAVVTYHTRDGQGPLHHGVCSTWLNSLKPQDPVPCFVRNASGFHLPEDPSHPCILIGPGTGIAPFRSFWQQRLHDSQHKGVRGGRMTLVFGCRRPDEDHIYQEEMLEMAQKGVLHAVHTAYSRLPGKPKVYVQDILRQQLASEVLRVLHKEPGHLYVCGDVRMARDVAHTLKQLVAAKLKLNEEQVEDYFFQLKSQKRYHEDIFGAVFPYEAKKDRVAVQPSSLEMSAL
Test: DAN assay of nitric oxide production (hiNOS)
Details: enzyme expressed in HEK293 cells transiently transfected with human iNOS
Excerpt: The source of nitric oxide synthase (NOS) enzyme can be generated in several ways including induction of endogenous iNOS using cytokines and/or lipopolysaccharide (LPS) in various cell types known in the art. […] The level of nitrate or nitrite in the specimen can be quantified by any method known in the art which provides adequate sensitivity and reproducibility. […]
pEC50: −log10 of the molar value.

[
  {
    "Compound": "O=c1cc(Cn2c(-c3ccccc3C(F)(F)F)nc3ccccc32)c2ccc(F)c(F)c2[nH]1 [Example 245]",
    "pEC50": "≥ 5.30"
  },
  {
    "Compound": "Cc1cccc(C)c1-c1nc2ccccc2n1Cc1cc(=O)[nH]c2c(F)c(F)ccc12 [Example 246]",
    "pEC50": "< 5.30"
  },
  {
    "Compound": "Cn1nccc1C(=O)N(Cc1cc(=O)[nH]c2c(F)c(F)ccc12)c1cccc(Cl)c1 [Example 112]",
    "pEC50": "< 5.30"
  },
  {
    "Compound": "O=c1cc(CN(c2cccc(Cl)c2)c2nccc3ccccc23)c2cccc(F)c2[nH]1 [Example 78]",
    "pEC50": "< 5.30"
  },
  {
    "Compound": "Cc1ncsc1-c1nc2ccccc2n1Cc1cc(=O)[nH]c2ccccc12 [Example 124]",
    "pEC50": "≥ 5.30"
  },
  {
    "Compound": "O=c1cc(Cn2c(-c3cncs3)nc3ccccc32)c2ccc(F)c(F)c2[nH]1 [Example 191]",
    "pEC50": "≥ 5.30"
  },
  {
    "Compound": "Cc1nc2ccccc2n1Cc1cc(=O)[nH]c2c(F)c(F)ccc12 [Example 190]",
    "pEC50": "< 5.30"
  },
  {
    "Compound": "Cn1ccnc1C(=O)N(Cc1cc(=O)[nH]c2c(F)cccc12)c1cccc(Cl)c1 [Example 47]",
    "pEC50": "< 5.30"
  },
  {
    "Compound": "Cc1ccccc1Cc1nc2ccccc2n1Cc1cc(=O)[nH]c2c(F)c(F)ccc12 [Example 216]",
    "pEC50": "< 5.30"
  },
  {
    "Compound": "Cc1ncsc1C(=O)N(Cc1cc(=O)[nH]c2cccc(F)c12)c1cccc(Cl)c1 [Example 111]",
    "pEC50": "≥ 5.30"
  },
  {
    "Compound": "Cn1nccc1-c1nc2ccccc2n1Cc1cc(=O)[nH]c2c(F)c(F)ccc12 [Example 233]",
    "pEC50": "≥ 5.30"
  },
  {
    "Compound": "O=C(Cc1ccccc1)N(Cc1cc(=O)[nH]c2ccccc12)c1ccccc1 [Example 25]",
    "pEC50": "≥ 5.30"
  },
  {
    "Compound": "Cc1ncsc1C(=O)N(Cc1cc(=O)[nH]c2c(F)c(F)ccc12)c1ccccc1F [Example 90]",
    "pEC50": "≥ 5.30"
  },
  {
    "Compound": "Cc1ncsc1CN(C(=O)c1cc(=O)[nH]c2c(F)cccc12)c1ccc(F)c(Cl)c1 [Example 104]",
    "pEC50": "< 5.30"
  },
  {
    "Compound": "Cc1cccc2c1nc(CC(C)C)n2Cc1cc(=O)[nH]c2c(F)c(F)ccc12 [Example 225]",
    "pEC50": "≥ 5.30"
  },
  {
    "Compound": "O=c1cc(Cn2c(-c3ccncc3F)nc3ccccc32)c2ccc(F)c(F)c2[nH]1 [Example 244]",
    "pEC50": "≥ 5.30"
  },
  {
    "Compound": "Cc1noc(C)c1-c1nc2ccccc2n1Cc1cc(=O)[nH]c2c(F)c(F)ccc12 [Example 232]",
    "pEC50": "≥ 5.30"
  },
  {
    "Compound": "Cc1nc(C)c(S(=O)(=O)N(Cc2cc(=O)[nH]c3c(F)c(F)ccc23)c2cccc(Cl)c2)s1 [Example 189]",
    "pEC50": "≥ 5.30"
  },
  {
    "Compound": "Cc1ccccc1C(=O)N(Cc1cc(=O)[nH]c2c(F)cccc12)c1cccc(Cl)c1 [Example 57]",
    "pEC50": "< 5.30"
  },
  {
    "Compound": "Cc1ncsc1C(=O)N(Cc1cc(=O)[nH]c2c(F)c(F)ccc12)c1cccc(Cl)c1 [Example 53]",
    "pEC50": "≥ 5.30"
  },
  {
    "Compound": "O=c1cc(Cn2c(-c3ccc(F)cc3)nc3ccccc32)c2ccc(F)c(F)c2[nH]1 [Example 197]",
    "pEC50": "< 5.30"
  },
  {
    "Compound": "Cc1ccc2[nH]c(=O)c(CN(Cc3ccccc3)c3ccc(C#N)cn3)cc2c1 [Example 103]",
    "pEC50": "< 5.30"
  },
  {
    "Compound": "N#Cc1ccc(C(=O)N(Cc2cc(=O)[nH]c3c(F)cccc23)c2cccc(Cl)c2)cc1 [Example 66]",
    "pEC50": "< 5.30"
  },
  {
    "Compound": "O=c1cc(Cn2c(CCC3CCCCC3)nc3ccccc32)c2ccc(F)c(F)c2[nH]1 [Example 213]",
    "pEC50": "< 5.30"
  },
  {
    "Compound": "O=C(c1cccc2ccccc12)N(Cc1cc(=O)[nH]c2c(F)cccc12)c1cccc(Cl)c1 [Example 82]",
    "pEC50": "< 5.30"
  },
  {
    "Compound": "Cc1ccc(N(Cc2cc(=O)[nH]c3c(F)c(F)ccc23)C(=O)c2scnc2C)cc1Cl [Example 177]",
    "pEC50": "≥ 5.30"
  },
  {
    "Compound": "Cc1nccn1-c1nc2ccccc2n1Cc1cc(=O)[nH]c2c(F)c(F)ccc12 [Example 208]",
    "pEC50": "≥ 5.30"
  },
  {
    "Compound": "Cn1cnc(C(=O)N(Cc2cc(=O)[nH]c3c(F)cccc23)c2cccc(Cl)c2)c1 [Example 46]",
    "pEC50": "< 5.30"
  },
  {
    "Compound": "O=c1cc(CN(CCCc2ccco2)c2ccccc2)c2ccccc2[nH]1 [Example 24]",
    "pEC50": "≥ 5.30"
  },
  {
    "Compound": "Cc1ncsc1C(=O)N(Cc1cc(=O)[nH]c2c(F)c(F)ccc12)c1cc(Cl)ccc1F [Example 88]",
    "pEC50": "≥ 5.30"
  },
  {
    "Compound": "O=c1cc(CN2CCN(c3ccccc3F)CC2)c2ccccc2[nH]1 [Example 106]",
    "pEC50": "< 5.30"
  },
  {
    "Compound": "O=C(c1cncs1)N(Cc1cc(=O)[nH]c2ccccc12)c1ccccc1 [Example 27]",
    "pEC50": "< 5.30"
  },
  {
    "Compound": "O=c1cc(CN(c2cccc(Cl)c2)S(=O)(=O)c2cccnc2)c2ccc(F)c(F)c2[nH]1 [Example 261]",
    "pEC50": "≥ 5.30"
  }
]
